Origin of values: patent US20050059608A1

EXPERIMENT SUMMARY: Hydrolysis in aqueous solution (chemical hydrolysis in phosphate buffer)
Format: physicochemical
SETTINGS: aqueous phosphate buffer 0.16 M, pH 5.0, 37° C.; read-out: Pseudo-first order half-time (t1/2) for chemical hydrolysis (converted)
EXPERIMENTAL READOUT: half-life (h)
Output spec: scalar in h, unitless text.

Task: Sample "CCN(CC)C(=O)/C(C#N)=C/c1cc(OC(=O)N[C@@H](Cc2ccc(O)c(O)c2)C(=O)OC)c(O)c([N+](=O)[O-])c1" — what was its half-life?
Output: 1.4

----------
EXPERIMENT SUMMARY: Hydrolysis in 10% rabbit liver homogenate
Type: in vitro ADME
SETTINGS: 10% rabbit liver homogenate (9,000 g supernatant), pH 7.4, 37° C., read-out: t1/2 of hydrolysis in rabbit liver homogenate
EXPERIMENTAL READOUT: half-life (min)
Output spec: scalar in min, unitless text.

Task: Sample "CCN(CC)C(=O)/C(C#N)=C/c1cc(OC(=O)N[C@@H](Cc2ccc(O)c(O)c2)C(=O)OC)c(O)c([N+](=O)[O-])c1" — what was its half-life?
Output: 7
